B1: BTBD1 (parent)
chain: YGSIHGPTDYQVNIQIIEYEKKQT

Variants of: B1
Assay: protein stability index of a GFP-peptide fusion (GPS, HEK-293T) (PSI 1-6); higher = more stable;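 note: lentivirally expressed fusions sorted by FACS into six bins by GFP to DsRed ratio, PSI derived from sequencing read proportions per bin multiplied by bin number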
Conditions: c terminus: a fixed tail appended
endpoint: protein stability index
Respond numerically, and do not add a unit to the figure.

For orientation, consider the following solved cases.
-- ask Would you kindly share the measured protein stability index for `I17T` ?
-- reply 3.47

-- ask Would you kindly share the measured protein stability index for `Q23M` ?
-- reply 2.18

-- ask Would you kindly share the measured protein stability index for `Y10Q` ?
-- reply 4.33

-- ask Would you kindly share the measured protein stability index for `T24K` ?
-- reply 3.05

-- ask Would you kindly share the measured protein stability index for `E18C` ?
-- reply 1.86

-- ask Would you kindly share the measured protein stability index for `Y19P` ?
-- reply 3.67

-- ask Would you kindly share the measured protein stability index for `V12W` ?
-- reply 2.32

-- ask Would you kindly share the measured protein stability index for `G6M` ?
-- reply 2.85

Shift focus to the following entry.
-- ask Would you kindly share the measured protein stability index for `N13Q` ?
-- reply 2.69
